These measurements were taken from ChEMBL document CHEMBL1157539.

system: Plasmodium falciparum; test: GSK_TCMDC: Inhibition of Plasmodium falciparum Dd2 in whole red blood cells, using parasite LDH activity as an index of growth. Test compounds present at 2uM; assay type: functional
experimental.endpoint: Inhibition (%)

[[record]]
smiles_representation = "COc1ccc(C=NN=c2cc(C)[nH]c3c(C)cccc23)c2ccccc12"
study_system = "Plasmodium falciparum"
unit_label = "%"
quantitative_result = 98

[[record]]
smiles_representation = "O=C(/C=C/c1ccc(C(F)(F)F)cc1)NCCCCCN1CCN(C(=O)Nc2ccc(F)c(Cl)c2)CC1"
study_system = "Plasmodium falciparum"
unit_label = "%"
quantitative_result = 0

[[record]]
smiles_representation = "O=[N+]([O-])c1cc(/C=N/Nc2nc3ccccc3[nH]2)ccc1O"
study_system = "Plasmodium falciparum"
unit_label = "%"
quantitative_result = 14

[[record]]
smiles_representation = "Clc1ccccc1CN1CCC(NCc2cccc(-n3ccnc3)c2)CC1.O=C(O)C(F)(F)F"
study_system = "Plasmodium falciparum"
unit_label = "%"
quantitative_result = 43

[[record]]
smiles_representation = "O=C(Nc1cccc(CN2CCCN(Cc3ccc4c(c3)OCO4)CC2)c1)c1ccc(-c2ccccc2)cc1.O=C(O)C(F)(F)F"
study_system = "Plasmodium falciparum"
unit_label = "%"
quantitative_result = 19

[[record]]
smiles_representation = "N#Cc1ccc(-c2ccc(C(=O)NCCCCN3CCC(c4cn(CCO)c5ccccc45)CC3)cc2)cc1"
study_system = "Plasmodium falciparum"
unit_label = "%"
quantitative_result = 43

[[record]]
smiles_representation = "CCN(CCCN1CCCCC1)c1cc(C)nc(Nc2cc(Br)ccc2C)n1.O=C(O)C(F)(F)F"
study_system = "Plasmodium falciparum"
unit_label = "%"
quantitative_result = 39

[[record]]
smiles_representation = "CCNc1cc(C(=O)N[C@@H](Cc2ccccc2)[C@H](O)CNCc2ccc3c(c2)OCCO3)cc(N2CCCCS2(=O)=O)c1.O=CO"
study_system = "Plasmodium falciparum"
unit_label = "%"
quantitative_result = 45

[[record]]
smiles_representation = "CS(=O)(=O)c1ccc(-c2cncc(Nc3cccc([N+](=O)[O-])c3)c2)cc1"
study_system = "Plasmodium falciparum"
unit_label = "%"
quantitative_result = 70

